Reference for the values: ChEMBL document CHEMBL2202954

test system: SF-268; assay: Cytotoxicity against human SF268 cells assessed as cellular growth at 10 uM by SRB assay; assay type: functional
Can you tell me Activity for the items I'm about to list?
Response body: numeric value in %, unit text excluded.

Provide the documented Activity with SF-268 as the system for `COc1ccc2nc(NC(=O)c3ccc(F)cc3)sc2c1`
106.57

Provide the documented Activity with SF-268 as the system for `Cc1cc(C)c(NC(=O)c2sc3nc4c(cc3c2N)C(=O)CC(C)(C)C4)c(C)c1`
115.09

Provide the documented Activity with SF-268 as the system for `Cc1ccc(NC(=O)c2sc3nc(-c4cccs4)ccc3c2N)cc1C`
107.88
